Just for reference, patent US20200216495A1 is where these values come from.

# TARGET: Tau40 P301L protein (human)
# ASSAY DETAILS: cell-based or functional assay
Square brackets hold non-standard residues; d marks the D form. Ends that are not written are not given here. dNle = CCCC[C@@H](N)C(=O)O
IC50, Tau40 assay (ThT) less than 0.8 µM is 1 (yes); IC50, Tau40 assay (ThT) greater than or equal to 0.8 µM is 0 (no).

[dW][dR][dM][dR][dI][dH][dW] [wrmrihw (PEPTIDE ID NO: 246)] | 0 (no)
[dW][dR][dL][dK][dV][dN][dW] [wrlkvnw (PEPTIDE ID NO: 296)] | 0 (no)
[dL][dK][dI][dNle][dI][dH][dY] [lkiuihy (PEPTIDE ID NO: 321)] | 0 (no)
[dL][dK][dV][dR][dW][dW][dW][dR] [lkvrwwwr (PEPTIDE ID NO: 199)] | 1 (yes)
[dL][dK][dI][dW][dI][dH][dY][dH] [lkiwihyh (PEPTIDE ID NO: 299)] | 0 (no)
[dL][dK][dF][dR][dI][dH][dY] [lkfrihy (PEPTIDE ID NO: 216)] | 0 (no)

### Prompt Please state whether IC50, Tau40 assay (ThT) is below 0.8 µM for [dL][dK][dI][dR][dI][dH][dY][dL] [lkirihyl (PEPTIDE ID NO: 193)]
### Response 1 (yes)
